System: 931267-113-T-J1-PDC multicell spheroid viability
Experiment: Anticancer human tumor 931267-113-T-J1-PDC patient-derived colon adenocarcinoma cell line growth inhibition [PI3K]
Conditions: second compound 0.316 µM; first compound 0.1 µM; hits give low values
property.name: viability, T/C (%)
Entry rule: numbers only, all in %.

CC1(C)CCC(CN2CCN(c3ccc(C(=O)NS(=O)(=O)c4ccc(NCC5CCOCC5)c([N+](=O)[O-])c4)c(Oc4cnc5[nH]ccc5c4)c3)CC2)=C(c2ccc(Cl)cc2)C1 + COc1c(OCCCN2CCOCC2)ccc2c3n(c(=NC(=O)c4cnc(N)nc4)nc12)CCN3 = 50.3
CC(C)NCC(C(=O)N1CCN(c2ncnc3c2C(C)CC3O)CC1)c1ccc(Cl)cc1 (stereo not drawn) + CC(Nc1ncnc2nc[nH]c12)c1cc2cccc(Cl)c2c(=O)n1-c1ccccc1 = 107
CCCS(=O)(=O)Nc1ccc(F)c(C(=O)c2c[nH]c3ncc(-c4ccc(Cl)cc4)cc23)c1F + CC(Nc1ncnc2nc[nH]c12)c1cc2cccc(Cl)c2c(=O)n1-c1ccccc1 = 103
CC(C)n1nc(-c2ccc3oc(N)nc3c2)c2c(N)ncnc21 + CC(Nc1ncnc2nc[nH]c12)c1cc2cccc(Cl)c2c(=O)n1-c1ccccc1 = 54.1
CNC(=O)c1ccc(N2C(=S)N(c3ccc(C#N)c(C(F)(F)F)c3)C(=O)C2(C)C)cc1F + CC(Nc1ccc2c(c1)OCCn1cc(N3C(=O)OCC3C(F)F)nc1-2)C(N)=O = 78.9
CC1(C)CCC(CN2CCN(c3ccc(C(=O)NS(=O)(=O)c4ccc(NCC5CCOCC5)c([N+](=O)[O-])c4)c(Oc4cnc5[nH]ccc5c4)c3)CC2)=C(c2ccc(Cl)cc2)C1 + CC(Nc1ccc2c(c1)OCCn1cc(N3C(=O)OCC3C(F)F)nc1-2)C(N)=O = 89
CCCS(=O)(=O)Nc1ccc(F)c(C(=O)c2c[nH]c3ncc(-c4ccc(Cl)cc4)cc23)c1F + Cc1nc(NC(=O)N2CCCC2C(N)=O)sc1-c1ccnc(C(C)(C)C(F)(F)F)c1 = 91

// below: viability, T/C requested for another compound
Please fill in: viability, T/C reported for C[C@@H](NC(=O)c1ncnc(N)c1Cl)c1ncc(C(=O)Nc2cc(C(F)(F)F)c(Cl)cn2)s1 + CC(Nc1ncnc2nc[nH]c12)c1cc2cccc(Cl)c2c(=O)n1-c1ccccc1 = 116

====

Entries annotated with measured viability, T/C
System: 931267-113-T-J1-PDC multicell spheroid viability
Assay: Anticancer human tumor 931267-113-T-J1-PDC cell line growth inhibition [PI3K];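 further: viability read 7 days after compound addition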
Details: second compound 0.00316 µM; first compound 0.000316 µM; hits give low values
Answer in %, number only, no unit symbol.

A selection of reference data follows.
CC(=O)c1c(C)c2cnc(Nc3ccc(N4CCNCC4)cn3)nc2n(C2CCCC2)c1=O + COc1c(OCCCN2CCOCC2)ccc2c3n(c(=NC(=O)c4cnc(N)nc4)nc12)CCN3 = 108
CC(=O)c1c(C)c2cnc(Nc3ccc(N4CCNCC4)cn3)nc2n(C2CCCC2)c1=O + CC(Nc1ccc2c(c1)OCCn1cc(N3C(=O)OCC3C(F)F)nc1-2)C(N)=O = 104

Consider the record given below.
For reference, reported viability, T/C for Cn1ncnc1[C@H]1c2n[nH]c(=O)c3cc(F)cc(c23)N[C@@H]1c1ccc(F)cc1 + COc1c(OCCCN2CCOCC2)ccc2c3n(c(=NC(=O)c4cnc(N)nc4)nc12)CCN3 stands at 103
